target: α9α10E287Q (Rattus norvegicus, UniProt P43144+Q9JLB5, E287Q)
Sequence (P43144 26-479): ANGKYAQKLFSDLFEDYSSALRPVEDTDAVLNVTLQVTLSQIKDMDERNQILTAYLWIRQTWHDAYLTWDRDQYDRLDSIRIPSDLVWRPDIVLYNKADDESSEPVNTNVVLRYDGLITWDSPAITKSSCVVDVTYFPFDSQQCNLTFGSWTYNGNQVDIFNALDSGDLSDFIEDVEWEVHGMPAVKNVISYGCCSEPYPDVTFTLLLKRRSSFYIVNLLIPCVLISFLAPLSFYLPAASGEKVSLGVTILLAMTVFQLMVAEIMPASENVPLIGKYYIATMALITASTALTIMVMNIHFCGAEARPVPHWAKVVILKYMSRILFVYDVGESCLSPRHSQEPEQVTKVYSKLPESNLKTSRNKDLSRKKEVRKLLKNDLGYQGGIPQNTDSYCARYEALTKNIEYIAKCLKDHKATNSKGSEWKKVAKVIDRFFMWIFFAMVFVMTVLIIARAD
Sequence (Q9JLB5 25-447 E287Q): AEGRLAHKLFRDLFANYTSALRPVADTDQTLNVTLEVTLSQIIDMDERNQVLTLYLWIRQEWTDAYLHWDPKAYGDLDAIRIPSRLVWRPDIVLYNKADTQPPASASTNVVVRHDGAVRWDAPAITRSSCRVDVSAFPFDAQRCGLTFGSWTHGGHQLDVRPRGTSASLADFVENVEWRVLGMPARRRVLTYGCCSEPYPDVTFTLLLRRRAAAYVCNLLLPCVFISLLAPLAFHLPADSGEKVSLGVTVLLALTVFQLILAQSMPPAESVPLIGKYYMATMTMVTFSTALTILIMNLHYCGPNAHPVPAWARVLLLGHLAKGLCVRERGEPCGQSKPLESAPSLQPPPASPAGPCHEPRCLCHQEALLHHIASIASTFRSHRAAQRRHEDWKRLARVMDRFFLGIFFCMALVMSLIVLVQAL
assay.context: read-out: Ca^2+ IC50, block of responses to 20 µM ACh
readout.name: pIC50
In plain terms, pIC50 is the concentration in mol/L turned into minus its base-10 logarithm.

INPUT: Identify measured pIC50 corresponding to [Ca+2]
OUTPUT: 3.52

* * *

target: α9α10E71Q (Rattus norvegicus, UniProt P43144+Q9JLB5, E71Q)
Sequence (P43144 26-479): as the sequence (P43144 26-479) above
Sequence (Q9JLB5 25-447 E71Q): as the sequence (Q9JLB5 25-447 E287Q) above, with E47Q, Q263E counted along it
assay.context: read-out: Ca^2+ IC50, block of responses to 100 µM ACh
readout.name: pIC50
In plain terms, pIC50 is the concentration in mol/L turned into minus its base-10 logarithm.

INPUT: Identify measured pIC50 corresponding to [Ca+2]
OUTPUT: 3.10

* * *

target: α9α10E201Q (Rattus norvegicus, UniProt P43144+Q9JLB5, E201Q)
Sequence (P43144 26-479): as the sequence (P43144 26-479) above
Sequence (Q9JLB5 25-447 E201Q): as the sequence (Q9JLB5 25-447 E287Q) above, with E177Q, Q263E counted along it
assay.context: read-out: Ca^2+ IC50, block of responses to 100 µM ACh
readout.name: pIC50
In plain terms, pIC50 is the concentration in mol/L turned into minus its base-10 logarithm.

INPUT: Identify measured pIC50 corresponding to [Ca+2]
OUTPUT: 3.05

* * *

target: α9α10^α9extra (Rattus norvegicus, UniProt P43144+Q9JLB5, A264D/A308T/A312F/A328P/E329N/F253L/F325Y/H335A/I246L/I275V/I304M/I310V/I323L/L250F/L309M/M279L/M285I/M319L/R331H/S258A/V286L/V320I/Y260H)
assay.context: read-out: Ca^2+ IC50, block of responses to 10 µM ACh, -90 mV
readout.name: IC50 (µM)
A number alone suffices; assume µM.

INPUT: Identify measured IC50 corresponding to [Ca+2]
OUTPUT: 700
